This section presents pIC50 values reported for Tyrosine-protein kinase CSK (Homo sapiens, UniProt P41240) in the literature.
// returns pIC50 (minus log10 of molar concentration), number only

Give recorded pIC50 with Tyrosine-protein kinase CSK (Homo sapiens, UniProt P41240) for the following molecule: NC(=O)c1c(-c2ccc(Oc3ccccc3)cc2)[nH]c(C(=O)c2c(F)cccc2F)c1N 8.35

Give recorded pIC50 with Tyrosine-protein kinase CSK (Homo sapiens, UniProt P41240) for the following molecule: COCC(=O)N1CCC[C@@H](c2nc(-c3ccc(C(=O)Nc4cc(C(F)(F)F)ccn4)cc3F)c3c(N)nccn23)C1 6.58

Give recorded pIC50 with Tyrosine-protein kinase CSK (Homo sapiens, UniProt P41240) for the following molecule: CC(C)(N)C(=O)NCCn1ccc2ncnc(Nc3ccc(Oc4cccc5sncc45)c(Cl)c3)c21 5.41

Give recorded pIC50 with Tyrosine-protein kinase CSK (Homo sapiens, UniProt P41240) for the following molecule: CC(C)C(=O)N1CCO[C@@H](c2nc(-c3ccc(C(=O)Nc4cc(C(F)(F)F)ccn4)cc3F)c3c(N)nccn23)C1 5.67

* * *

pIC50: −log10 of the molar value.
This section presents pIC50 values reported for UniProt P41240 in the literature.

Give recorded pIC50 with UniProt P41240 for the following molecule: CC(C)c1nnc2ccc(-c3c[nH]nc3-c3cc(F)ccc3F)cn12 < 5.00

Give recorded pIC50 with UniProt P41240 for the following molecule: N#CCNC(=O)c1ccc(-c2ccnc(Nc3ccc(N4CCOCC4)cc3)n2)cc1 < 6.00

Give recorded pIC50 with UniProt P41240 for the following molecule: COc1cc(Nc2nccc(-c3ccc(NCCN)nc3)n2)cc(OC)c1OC < 5.00

Give recorded pIC50 with UniProt P41240 for the following molecule: COc1ccc2cc(-c3nn(CC4CCNCC4)c4ncnc(N)c34)ccc2c1 < 5.00
